- System: Hepatotoxicity
- methodNotes: FDA HLAED, liver enzyme composite activity
- experimentalContext: human, Liver
Please provide measured Composite Activity - Active for the entries that follow.
One number for each entry.

The cases that follow already have their Composite Activity - Active on record.
>  <compound>
CN(C)C(=N)N=C(N)N [METFORMIN]

>  <Composite Activity - Active>
0

$$$$
>  <compound>
Cc1cccc(C)c1OCC(C)N (stereo unspecified) [MEXILETINE]

>  <Composite Activity - Active>
1

$$$$
>  <compound>
OC(Cn1cncn1)(Cn1cncn1)c1ccc(F)cc1F [FLUCONAZOLE]

>  <Composite Activity - Active>
4

$$$$

For every item below, please supply its Composite Activity - Active.
1. Clc1ccc(CSC(Cn2ccnc2)c2ccc(Cl)cc2Cl)cc1 (stereo unspecified) [SULCONAZOLE]
2. CNCCCC12CCC(c3ccccc31)c1ccccc12 [MAPROTILINE]
3. O=P1(N(CCCl)CCCl)NCCCO1 (stereo unspecified) [CYCLOPHOSPHAMIDE ANHYDROUS]
4. Nc1ccn([C@H]2CC[C@@H](CO)O2)c(=O)n1 [ZALCITABINE]

## Output
1: 0; 2: 0; 3: 4; 4: 1

Quick request: Composite Activity - Active for each listed item, please.
1. Clc1cccc(Cl)c1N=C1NCCN1 [CLONIDINE]
2. CC(=O)O[C@H]1C(=O)[C@@]2(C)[C@H]([C@H](OC(=O)c3ccccc3)[C@]3(O)C[C@H](OC(=O)[C@H](O)[C@@H](NC(=O)c4ccccc4)c4ccccc4)C(C)=C1C3(C)C)[C@]1(OC(C)=O)CO[C@@H]1C[C@@H]2O [PACLITAXEL]
3. CC1=C(C(=O)O)N2C(=O)[C@@H](NC(=O)[C@H](N)c3ccccc3)[C@H]2SC1 [CEPHALEXIN ANHYDROUS]
4. NCCCC(O)(P(=O)(O)O)P(=O)(O)O [ALENDRONIC ACID]
5. O=C1CN(/N=C/c2ccc([N+](=O)[O-])o2)C(=O)N1 [NITROFURANTOIN]
6. NCCCNCCSP(=O)(O)O [AMIFOSTINE]
7. Clc1ccc(CO/N=C(\Cn2ccnc2)c2ccc(Cl)cc2Cl)c(Cl)c1 [OXICONAZOLE]
8. c1ccc([C@H]2CN3CCSC3=N2)cc1 [LEVAMISOLE]

## Output
1. 2
2. 0
3. 0
4. 0
5. 5
6. 0
7. 0
8. 3

Value sought for every listed compound: Composite Activity - Active.
1. Clc1ccc(C(Cn2ccnc2)OCc2ccsc2Cl)c(Cl)c1 (stereo unspecified) [TIOCONAZOLE]
2. NC(N)=Nc1nc(CSCCC(N)=NS(N)(=O)=O)cs1 [FAMOTIDINE]
3. C[C@](N)(Cc1ccc(O)cc1)C(=O)O [METYROSINE]
4. CC1(C)NC(=O)N(c2ccc([N+](=O)[O-])c(C(F)(F)F)c2)C1=O [NILUTAMIDE]
5. Nc1c2c(nc3ccccc13)CCCC2 [TACRINE]
6. Clc1ccc2nsnc2c1NC1=NCCN1 [TIZANIDINE]

## Output
1: 0; 2: 0; 3: 0; 4: 0; 5: 5; 6: 1

###

- Test system: Hepatotoxicity
- methodNotes: FDA HLAED, liver enzyme composite activity
- experimentalContext: human
metric: Composite Activity - Active
Give bare numbers.

Worked cases, Composite Activity - Active given:
>  <compound>
CCCCC(=O)O[C@]1(C(=O)CO)[C@@H](C)C[C@H]2[C@@H]3CCC4=CC(=O)C=C[C@]4(C)[C@@]3(F)[C@@H](O)C[C@@]21C [BETAMETHASONE VALERATE]

>  <testedSystem>
Hepatotoxicity

>  <Composite Activity - Active>
0

$$$$
>  <compound>
C=C1/C(=C\C=C2/CCC[C@]3(C)[C@@H]([C@H](C)/C=C/[C@@H](O)C4CC4)CC[C@@H]23)C[C@@H](O)C[C@@H]1O

>  <testedSystem>
Hepatotoxicity

>  <Composite Activity - Active>
0

$$$$
>  <compound>
C#C[C@]1(O)CC[C@H]2[C@@H]3CCC4=Cc5oncc5C[C@]4(C)[C@H]3CC[C@@]21C

>  <testedSystem>
Hepatotoxicity

>  <Composite Activity - Active>
1

$$$$
>  <compound>
CC(=O)N(CC(O)CN(C(C)=O)c1c(I)c(C(=O)NCC(O)CO)c(I)c(C(=O)NCC(O)CO)c1I)c1c(I)c(C(=O)NCC(O)CO)c(I)c(C(=O)NCC(O)CO)c1I (stereo unspecified)

>  <testedSystem>
Hepatotoxicity

>  <Composite Activity - Active>
0

$$$$

The following compounds each have a reported value; give each one's Composite Activity - Active.
1. Cc1cc2c(s1)Nc1ccccc1N=C2N1CCN(C)CC1
2. COc1cc(N)c(Cl)cc1C(=O)NC1CCN(CCCOc2ccc(F)cc2)CC1OC (stereo unspecified) [CISAPRIDE]
3. CC=CC1=C(C(=O)O)N2C(=O)[C@@H](NC(=O)[C@H](N)c3ccc(O)cc3)[C@H]2SC1
4. O=C(O)c1cc(/N=N/c2ccc(O)c(C(=O)O)c2)ccc1O
5. C=CC1=C(C(=O)O)N2C(=O)[C@@H](NC(=O)/C(=N\OCC(=O)O)c3csc(N)n3)[C@H]2SC1
6. COc1ccc(C(CN(C)C)C2(O)CCCCC2)cc1 (stereo unspecified)
7. Cc1cccc(C)c1NC(=O)C(C)N (stereo unspecified) [TOCAINIDE]
8. C[C@H]1COc2c(N3CCN(C)CC3)c(F)cc3c(=O)c(C(=O)O)cn1c23.C[C@H]1COc2c(N3CCN(C)CC3)c(F)cc3c(=O)c(C(=O)O)cn1c23.O

## Output
1. 3
2. 0
3. 0
4. 0
5. 0
6. 0
7. 0
8. 0

Kindly give each listed record's Composite Activity - Active.
1. CCC(=O)O[C@H]1[C@H](O[C@@H]2[C@@H](C)[C@H](O[C@H]3C[C@@](C)(OC)[C@@H](O)[C@H](C)O3)[C@@H](C)C(=O)O[C@H](CC)[C@@](C)(O)[C@H](O)[C@@H](C)C(=O)[C@H](C)C[C@@]2(C)O)O[C@H](C)C[C@@H]1N(C)C [ERYTHROMYCIN PROPIONATE]
2. O=c1[nH]c(=O)n([C@H]2C[C@H](O)[C@@H](CO)O2)cc1C(F)(F)F
3. CCC(=O)O[C@@H](O[P@](=O)(CCCCc1ccccc1)CC(=O)N1C[C@H](C2CCCCC2)C[C@H]1C(=O)O)C(C)C
4. CC(C)OC(=O)CCC/C=C\C[C@@H]1[C@@H](CC[C@@H](O)CCc2ccccc2)[C@H](O)C[C@@H]1O

## Output
[3, 0, 0, 0]

Quick one: give me Composite Activity - Active for each item below, same order please.
1. S=P(N1CC1)(N1CC1)N1CC1
2. CC(=O)OCC(=O)[C@@]1(O)[C@@H](C)C[C@H]2[C@@H]3CCC4=CC(=O)C=C[C@]4(C)[C@@]3(F)[C@@H](O)C[C@@]21C [BETAMETHASONE ACETATE]
3. CN1C2CCCC1CC(NC(=O)c1nn(C)c3ccccc13)C2 (stereo unspecified)
4. CCN[C@H]1C[C@H](C)S(=O)(=O)c2sc(S(N)(=O)=O)cc21 [DORZOLAMIDE]
5. Nc1cc(N2CCCCC2)nc(N)[n+]1[O-]
6. O=C1CC2(CCCC2)CC(=O)N1CCCCN1CCN(c2ncccn2)CC1
7. Cc1cccc(Nc2ccncc2S(=O)(=O)NC(=O)NC(C)C)c1 [TORSEMIDE]

## Output
0
0
0
0
0
0
0

Need Composite Activity - Active for each of these compounds.
1. CN(C)c1nc(N(C)C)nc(N(C)C)n1
2. CN(C)CCCN1c2ccccc2CCc2ccc(Cl)cc21
3. COCC1=C(C(=O)O)N2C(=O)[C@@H](NC(=O)/C(=N\OC)c3csc(N)n3)[C@H]2SC1
4. C#CCN(C)[C@H](C)Cc1ccccc1
5. COc1ccc2[nH]c([S+]([O-])Cc3ncc(C)c(OC)c3C)nc2c1 (stereo unspecified)
6. CCn1nc(C(=O)O)c(=O)c2cc3c(cc21)OCO3
7. CCCC(=O)O[C@]1(C(=O)COC(=O)CC)[C@@H](C)C[C@H]2[C@@H]3CCC4=CC(=O)C=C[C@]4(C)[C@@]3(F)[C@@H](O)C[C@@]21C [BETAMETHASONE BUTYRATE PROPIONATE]
8. CCc1nn(CCCN2CCN(c3cccc(Cl)c3)CC2)c(=O)n1CCOc1ccccc1

## Output
0
0
0
0
0
2
0
0

###

- Tested on: Hepatotoxicity
- methodNotes: FDA HLAED, serum glutamic oxaloacetic transaminase (SGOT) increase
- experimentalContext: human
metric: SGOT Increase - Number of Reports

Answered cases to consult:
>  <compound>
Clc1ccc(COC(Cn2ccnc2)c2ccc(Cl)cc2Cl)cc1 (configuration not stated)

>  <SGOT Increase - Number of Reports>
< 4

$$$$
>  <compound>
C[C@]12CC[C@H]3[C@@H](CCC4=CC(=O)CC[C@@]43C)[C@@H]1CC[C@@H]2OC(=O)CCC1CCCC1 [TESTOSTERONE CYPIONATE]

>  <SGOT Increase - Number of Reports>
< 4

$$$$
>  <compound>
C[C@H]1COc2c(N3CCN(C)CC3)c(F)cc3c(=O)c(C(=O)O)cn1c23.C[C@H]1COc2c(N3CCN(C)CC3)c(F)cc3c(=O)c(C(=O)O)cn1c23.O

>  <SGOT Increase - Number of Reports>
< 4

$$$$
>  <compound>
Cc1cc(CC(=O)O)n(C)c1C(=O)c1ccc(Cl)cc1 [ZOMEPIRAC]

>  <SGOT Increase - Number of Reports>
>= 4

$$$$
>  <compound>
COc1ccc(CC2c3cc(OC)c(OC)cc3CC[N+]2(C)CCC(=O)OCCCCCOC(=O)CC[N+]2(C)CCc3cc(OC)c(OC)cc3C2Cc2ccc(OC)c(OC)c2)cc1OC (configuration not stated)

>  <SGOT Increase - Number of Reports>
< 4

$$$$

I have 5 compounds here; please give me SGOT Increase - Number of Reports for each one.
1. CC[C@@]1(O)C(=O)OCc2c1cc1n(c2=O)Cc2cc3c(CN(C)C)c(O)ccc3nc2-1
2. Clc1ccc(CO/N=C(\Cn2ccnc2)c2ccc(Cl)cc2Cl)c(Cl)c1
3. CCOC(=O)c1cncn1[C@H](C)c1ccccc1 [ETOMIDATE]
4. Cc1cccc(Nc2ccccc2C(=O)O)c1C
5. CC1(C)C(C=C(Cl)Cl)C1C(=O)OCc1cccc(Oc2ccccc2)c1 (configuration not stated)

## Output
< 4
< 4
< 4
>= 4
< 4

State the recorded SGOT Increase - Number of Reports for every item in the following list.
1. C[C@H](CCC(=O)O)[C@H]1CC[C@H]2[C@@H]3[C@H](O)C[C@@H]4C[C@H](O)CC[C@]4(C)[C@H]3CC[C@]12C
2. Cc1ncc2n1-c1ccc(Cl)cc1C(c1ccccc1F)=NC2
3. CC(=O)OCC(CCn1cnc2cnc(N)nc21)COC(C)=O
4. Nc1nc2c(ncn2COCCO)c(=O)[nH]1
5. Clc1ccc(CSC(Cn2ccnc2)c2ccc(Cl)cc2Cl)cc1 (configuration not stated)
6. CC[N+](C)(C)Cc1ccccc1Br.Cc1ccc(S(=O)(=O)[O-])cc1 [BRETYLIUM TOSYLATE]
7. CNCCCC12CCC(c3ccccc31)c1ccccc12

## Output
< 4
< 4
< 4
>= 4
< 4
< 4
< 4
